- test.system: human mGlu5a receptor (Homo sapiens (Human))
- experiment.notes: Intracellular Ca2+ mobilization assay (mGlu5 PAM)
- Assay type: cell-based
- settings: HEK-293 cells stably transfected with human mGlu5a; L-glutamate added at EC20 after pre-incubation with test compound; read-out: EC50 (nM) mGlu5PAM
Kindly state EC50 for each of the entries shown.
Hey, just the number and the unit after it is fine.

// below: answered compounds
[[record]]
compound = "CC1(C)CCN(c2ccc(C#Cc3ccc(F)c(F)c3)cn2)C(=O)O1 [Example 80]"
test_result = "37 nM"

[[record]]
compound = "CN1C(=O)N(c2ncc(C#Cc3cc(F)ccc3F)cn2)CCC1(C)C [Example 139]"
test_result = "57 nM"

[[record]]
compound = "O=C1O[C@H]2CCC[C@H]2N1c1ccc(C#Cc2cncc(F)c2)cn1 (racemic) [Example 24]"
test_result = "35 nM"


Please go through the list and note EC50 for each compound.
1. CN1C(=O)N(c2ccc(C#Cc3cccnc3)cn2)C2CCCCC21 (centres unmarked) [Example 85]
2. CN1C(=O)N(c2cnc(C#Cc3cccc(F)c3)cn2)CCC1(C)C [Example 167]

Key:
1. 27 nM
2. 26 nM

###

Kindly state Emax for each of the entries shown.
- test.system: human mGlu5a receptor (Homo sapiens (Human), UniProt P41594)
- Sequence (P41594 other isoform, or with tags, fused parts or gaps): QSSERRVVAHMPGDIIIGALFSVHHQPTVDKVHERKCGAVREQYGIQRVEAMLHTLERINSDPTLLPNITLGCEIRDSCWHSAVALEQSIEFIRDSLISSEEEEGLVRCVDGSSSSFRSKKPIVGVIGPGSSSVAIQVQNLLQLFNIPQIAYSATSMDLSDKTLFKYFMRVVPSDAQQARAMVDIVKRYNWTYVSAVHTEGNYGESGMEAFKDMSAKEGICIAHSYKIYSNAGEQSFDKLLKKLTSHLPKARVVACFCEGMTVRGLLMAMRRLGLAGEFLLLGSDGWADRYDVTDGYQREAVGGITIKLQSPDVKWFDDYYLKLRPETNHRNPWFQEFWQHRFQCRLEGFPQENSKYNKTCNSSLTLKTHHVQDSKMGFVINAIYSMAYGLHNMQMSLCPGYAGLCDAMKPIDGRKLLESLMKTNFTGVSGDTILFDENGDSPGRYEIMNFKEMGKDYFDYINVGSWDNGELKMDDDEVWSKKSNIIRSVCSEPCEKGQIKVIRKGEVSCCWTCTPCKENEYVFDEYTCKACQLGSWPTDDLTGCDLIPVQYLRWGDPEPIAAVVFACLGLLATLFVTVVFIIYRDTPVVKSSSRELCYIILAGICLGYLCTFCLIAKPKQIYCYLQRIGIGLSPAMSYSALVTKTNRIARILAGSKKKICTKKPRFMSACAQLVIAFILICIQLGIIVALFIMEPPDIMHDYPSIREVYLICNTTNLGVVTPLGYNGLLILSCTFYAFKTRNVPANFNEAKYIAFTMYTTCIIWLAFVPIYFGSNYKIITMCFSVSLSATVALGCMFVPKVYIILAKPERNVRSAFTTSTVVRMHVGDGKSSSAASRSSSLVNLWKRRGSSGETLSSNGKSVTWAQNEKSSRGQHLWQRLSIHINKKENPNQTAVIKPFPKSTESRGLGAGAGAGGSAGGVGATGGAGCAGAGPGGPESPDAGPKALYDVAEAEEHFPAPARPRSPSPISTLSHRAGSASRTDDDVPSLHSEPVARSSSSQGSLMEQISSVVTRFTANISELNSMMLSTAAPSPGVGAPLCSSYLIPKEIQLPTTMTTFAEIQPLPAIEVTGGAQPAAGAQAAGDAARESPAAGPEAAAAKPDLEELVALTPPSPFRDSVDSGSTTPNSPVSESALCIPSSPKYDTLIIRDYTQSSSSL
- experiment.notes: Intracellular Ca2+ mobilization assay (mGlu5 PAM)
- Assay type: cell-based
- settings: maximal response in % of the maximal stimulatory effect obtained with saturating concentrations of L-glutamate; read-out: Eff. (%)
One number for each entry, in %.

// below: answered compounds
[[record]]
compound = "CN1C(=O)N(c2ccc(C#Cc3ccnnc3)cn2)CC1(C)C"
test_system = "human mGlu5a receptor (Homo sapiens (Human), UniProt P41594)"
test_result = 32

[[record]]
compound = "CN1C(=O)N(c2ccc(C#Cc3cccc(F)c3)cn2)[C@@H]2CCC[C@@H]21 (racemic)"
test_system = "human mGlu5a receptor (Homo sapiens (Human), UniProt P41594)"
test_result = 37

[[record]]
compound = "CC1(C)CCN(c2ccc(C#Cc3ccc(F)cc3)cn2)C(=O)C1"
test_system = "human mGlu5a receptor (Homo sapiens (Human), UniProt P41594)"
test_result = 89

[[record]]
compound = "CN1C(=O)N(c2ccc(C#Cc3cccnc3)cn2)C2CCCCC21 (centres unmarked)"
test_system = "human mGlu5a receptor (Homo sapiens (Human), UniProt P41594)"
test_result = 49


Proceed to the following item.
Exercise: // query Emax value for entry CC1(C)CN(c2ccc(C#Cc3ccccc3)nn2)C(=O)O1
Key: 112

###

- test.system: human mGlu5a receptor (Homo sapiens (Human), UniProt P41594)
- experiment.notes: Intracellular Ca2+ mobilization assay (mGlu5 PAM)
- Assay type: cell-based
- settings: HEK-293 cells stably transfected with human mGlu5a; L-glutamate added at EC20 after pre-incubation with test compound; read-out: EC50 (nM) mGlu5PAM
measured.property: EC50 (nM)
One number for each entry, in nM.

// below: answered compounds
[[record]]
compound = "CC1(C)CC(=O)N(c2ncc(C#Cc3cccc(F)c3)cn2)C1"
test_result = 13

[[record]]
compound = "O=C1O[C@H]2CCC[C@H]2N1c1ccc(C#Cc2ccccc2)cn1 (racemic)"
test_result = 14

[[record]]
compound = "CC1N(c2ccc(C#Cc3ccccc3)cn2)C(=O)OC1(C)C (racemic)"
test_result = 15

[[record]]
compound = "CC1(C)CC(=O)N(c2ncc(C#Cc3ccc(F)cc3)cn2)C1"
test_result = 92


Proceed to the following item.
Exercise: // query EC50 value for entry CN1C(=O)N(c2ncc(C#Cc3ccc(F)cc3)cc2F)CC1(C)C
Key: 96

###

- test.system: UniProt P41594
- experiment.notes: Intracellular Ca2+ mobilization assay (mGlu5 PAM)
- Assay type: cell-based
- settings: maximal response in % of the maximal stimulatory effect obtained with saturating concentrations of L-glutamate; read-out: Eff. (%)
measured.property: Emax
Hey, just the number and the unit after it is fine.

[[record]]
compound = "O=C1OC2COCCC2N1c1ccc(C#Cc2ccccc2)cn1 (stereo not drawn) [Example 94]"
test_result = "84%"

[[record]]
compound = "CN1C(=O)N(c2ccc(C#Cc3ccc(F)cc3)cn2)CC1(C)C [Example 57]"
test_result = "78%"

[[record]]
compound = "CN1C(=O)N(c2ccc(C#Cc3cccc(F)c3)nn2)[C@@H]2CCC[C@@H]21 (racemic) [Example 174]"
test_result = "56%"


Please go through the list and note Emax for each compound.
1. CN1C(=O)N(c2ccc(C#Cc3cncc(Cl)c3)cn2)CC1(C)C [Example 51]
2. CC1(C)CN(c2ccc(C#Cc3ccc(F)nc3)cn2)C(=O)O1 [Example 35]

Key:
45%
52%

Please go through the list and note Emax for each compound.
1. CN1C(=O)N(c2ncc(C#Cc3cc(F)ccc3F)cn2)CCC1(C)C [Example 139]
2. CC1(C)CCN(c2ccc(C#Cc3cc(F)ccc3F)cn2)C(=O)C1 [Example 92]
3. CC1(C)CCN(c2cnc(C#Cc3ccccc3)cn2)C(=O)C1 [Example 163]
4. CC(C)(C)C1(C)CN(c2ccc(C#Cc3ccccc3)cn2)C(=O)O1 (racemic) [Example 19]

Key:
54%
84%
74%
85%

###

- test.system: human mGlu5a receptor (Homo sapiens (Human))
- experiment.notes: Intracellular Ca2+ mobilization assay (mGlu5 PAM)
- Type: cell-based
- settings: HEK-293 cells stably transfected with human mGlu5a; L-glutamate added at EC20 after pre-incubation with test compound; read-out: EC50 (nM) mGlu5PAM
Doc: threshold 30 nM (exclusive). Items with EC50 beneath it return 1; others return 0.

Reference set, count: 5
[[record]]
compound = "CN1C(=O)N(c2ncc(C#Cc3cccc(F)c3)cc2F)CC1(C)C [Example 111]"
category_label = 0

[[record]]
compound = "CN1C(=O)N(c2ccc(C#Cc3ccccc3)cn2)CC1C(C)(C)C (racemic) [Example 107]"
category_label = 0

[[record]]
compound = "CN1C(=O)N(c2ccc(C#Cc3cccc(F)c3)cn2)[C@@H]2CCC[C@@H]21 (racemic) [Example 109]"
category_label = 1

[[record]]
compound = "CN1C(=O)N(c2ccc(C#Cc3ccccc3)cn2)CC1C1CC1 (racemic) [Example 83]"
category_label = 0

[[record]]
compound = "CC1(C)CN(c2ccc(C#Cc3cccnc3)cn2)C(=O)O1 [Example 7]"
category_label = 0


Exercise: Identify whether the compound CC1CN(c2ncc(C#Cc3ccc(F)cc3)cn2)C(=O)OC1(C)C (racemic) [Example 149] records EC50 below 30 nM.
Key: 0

Exercise: Identify whether the compound CCN1C(=O)N(c2ncc(C#Cc3cccc(F)c3)cn2)CC1(C)C [Example 144] records EC50 below 30 nM.
Key: 0

Exercise: Identify whether the compound CN1C(=O)N(c2ccc(C#Cc3ccccc3)cn2)CCC1(C)C [Example 67] records EC50 below 30 nM.
Key: 1

Exercise: Identify whether the compound CN1C(=O)N(c2cnc(C#Cc3cccnc3)cn2)CC1(C)C [Example 157] records EC50 below 30 nM.
Key: 0

###

Kindly state log10(EC50) for each of the entries shown.
- test.system: human mGlu5a receptor (Homo sapiens (Human), UniProt P41594)
- experiment.notes: Intracellular Ca2+ mobilization assay (mGlu5 PAM)
- Type: cell-based
- settings: HEK-293 cells stably transfected with human mGlu5a; L-glutamate added at EC20 after pre-incubation with test compound; read-out: EC50 (nM) mGlu5PAM
Answers are given as log10 of EC50 in nM.

[[record]]
molecule = "CC(C)(C)C1(C)CN(c2ccc(C#Cc3ccccc3)cn2)C(=O)O1 (racemic) [Example 19]"
test_result = 1.43


Please go through the list and note log10(EC50) for each molecule.
1. CC1(C)CCC(=O)N(c2ccc(C#Cc3cccc(F)c3)cn2)C1 [Example 43]
2. CC(C)N1C(=O)N(c2ccc(C#Cc3ccccc3)cn2)C2CCCCC21 (stereo not drawn) [Example 101]
3. Cc1cc(C#Cc2cccc(F)c2)cnc1N1CC(C)(C)N(C)C1=O [Example 108]
4. O=C1CC2(CCCC2)CN1c1ccc(C#Cc2ccccc2)cn1 [Example 59]
5. CC1(C)OC(=O)N(c2ccc(C#Cc3ccccc3)cn2)CC1O (racemic) [Example 95]

Key:
1.08
1.59
2.01
1.20
1.67

###

- test.system: human mGlu5a receptor (Homo sapiens (Human), UniProt P41594)
- experiment.notes: Intracellular Ca2+ mobilization assay (mGlu5 PAM)
- Format: cell-based
- settings: maximal response in % of the maximal stimulatory effect obtained with saturating concentrations of L-glutamate; read-out: Eff. (%)
Dear colleague, classification is by Emax, with ranges listed here: bottom bin: < 50%; middle bin: ≥ 50% and < 90%; top bin: ≥ 90%

[[record]]
compound = "CC(C)N1C(=O)N(c2ncc(C#Cc3cccc(F)c3)cn2)CC1(C)C [Example 141]"
category_label = "bottom bin"


Exercise: Band of CC1(C)CCN(c2ccc(C#Cc3ccccc3)nn2)C(=O)C1 [Example 151] ?
Key: top bin

Exercise: Band of CN1C(=O)N(c2ccc(C#Cc3cccc(Cl)c3)cn2)CC1(C)C [Example 54] ?
Key: bottom bin

Exercise: Band of O=C1OC2(CCCC2)CN1c1ccc(C#Cc2ccccc2)cn1 [Example 11] ?
Key: middle bin

Exercise: Band of CN1C(=O)N(c2ncc(C#Cc3ccccc3)cn2)CC12CC2 [Example 147] ?
Key: bottom bin

Exercise: Band of COC1C(=O)N(c2ccc(C#Cc3cncc(Cl)c3)cn2)CC1(C)C (racemic) [Example 63] ?
Key: top bin

Exercise: Band of CC1(C)CC(=O)N(c2ncc(C#Cc3ccccc3)cn2)C1 [Example 115] ?
Key: top bin

Exercise: Band of COC1CN(c2ccc(C#Cc3ccccc3)cn2)C(=O)OC1(C)C (racemic) [Example 114] ?
Key: middle bin

Exercise: Band of CN1C(=O)N(c2ncc(C#Cc3ccc(F)c(F)c3)cn2)CC1(C)C [Example 126] ?
Key: bottom bin

Exercise: Band of CC1(C)CCN(c2ccc(C#Cc3ccccc3)nn2)C(=O)O1 [Example 153] ?
Key: middle bin

Exercise: Band of O=C1OC2(CC2)CN1c1ccc(C#Cc2cccnc2)cn1 [Example 36] ?
Key: middle bin

Exercise: Band of CC1CN(c2ncc(C#Cc3cccc(F)c3)cn2)C(=O)OC1(C)C (racemic) [Example 148] ?
Key: middle bin

Exercise: Band of CN1C(=O)N(c2ccc(C#Cc3ccccc3)cn2)CCC1(C)C [Example 67] ?
Key: middle bin

Exercise: Band of CC(C)N1C(=O)N(c2ncc(C#Cc3ccccc3)cn2)CC1(C)C [Example 140] ?
Key: middle bin
